melting point: recorded values

Below are worked cases with known answers.
{"Compound": "CCOC(=O)c1c(-c2ccccc2)nn2c(-c3ccccc3)c(N)c(-c3ccc(OC)cc3)nc12 [3ae]", "Result": "189 to 190 °C"}
{"Compound": "Nc1c(-c2ccccc2)nc2c(C(=O)Nc3ccc(Cl)cc3)c(Nc3ccccc3)nn2c1-c1ccc(Br)cc1 [3t]", "Result": "294 to 296 °C"}
{"Compound": "COc1ccc(NC(=O)c2c(Nc3ccccc3)nn3c(-c4ccc(Cl)cc4)c(N)c(-c4ccc(C)cc4)nc23)cc1 [3l]", "Result": "263 to 265 °C"}
{"Compound": "CCOC(=O)c1c(-c2ccccc2)nn2c(-c3ccccc3)c(N)c(-c3ccc(Cl)cc3)nc12 [3ag]", "Result": "238 to 239 °C"}
{"Compound": "Nc1c(-c2ccc(Cl)cc2)nc2c(C(=O)Nc3ccccc3)c(Nc3ccccc3)nn2c1-c1ccc(Cl)cc1 [3h]", "Result": "281 to 283 °C"}
{"Compound": "Nc1c(-c2ccc(Cl)cc2)nc2c(C(=O)Nc3ccccc3)c(Nc3ccccc3)nn2c1-c1ccccc1 [3g]", "Result": "285 to 286 °C"}
{"Compound": "CCOC(=O)c1c(-c2ccccc2)nn2c(-c3ccc(Cl)cc3)c(N)c(-c3ccc(OC)cc3)nc12 [3af]", "Result": "226 to 228 °C"}
{"Compound": "COc1ccc(NC(=O)c2c(Nc3ccccc3)nn3c(-c4ccc(Cl)cc4)c(N)c(-c4ccc(OC)cc4)nc23)cc1 [3o]", "Result": "268 to 269 °C"}

Let us examine a further case.
Q. Suppose we examine the compound Nc1c(-c2ccc(Cl)cc2)nc2c(C(=O)Nc3ccc(Cl)cc3)c(Nc3ccccc3)nn2c1-c1ccc(Cl)cc1 [3y] ; what melting point value has been reported?
A. 268 to 270 °C

* * *

melting point: recorded values

Below are worked cases with known answers.
{"Compound": "Nc1c(-c2ccccc2)nc2c(C(=O)Nc3ccccc3)c(Nc3ccccc3)nn2c1-c1ccc(Br)cc1", "melting point": "235 to 237 °C"}
{"Compound": "COc1ccc(NC(=O)c2c(Nc3ccccc3)nn3c(-c4ccc(Cl)cc4)c(N)c(-c4ccccc4)nc23)cc1", "melting point": "217 to 218 °C"}

Let us examine a further case.
Q. Suppose we examine the compound CCOC(=O)c1c(-c2ccccc2)nn2c(-c3ccc(Br)cc3)c(N)c(-c3ccc(C)cc3)nc12 ; what melting point value has been reported?
A. 230 to 232 °C
